- Test system: Aphis gossypii
- Format: functional
observable: RatioLC50
Respond with the number and no other words.

So what does the record say about RatioLC50 for CCCCN(CCCC)SN(C)C(=O)Oc1cccc2c1OC(C)(C)C2 ?
1.2

So what does the record say about RatioLC50 for CC1(C)C(C=C(Cl)Cl)C1C(=O)OC(C#N)c1cccc(Oc2ccccc2)c1 (centres undefined) ?
0.5

So what does the record say about RatioLC50 for C/C(=N\C#N)N(C)Cc1ccc(Cl)nc1 ?
1.1

So what does the record say about RatioLC50 for CCCSP(=O)(OCC)Oc1ccc(Br)cc1Cl (centres undefined) ?
1.5

* * *

- Tested on: Aphis gossypii
- Type: functional
observable: RatioLC50

So what does the record say about RatioLC50 for C/C(=N\C#N)N(C)Cc1ccc(Cl)nc1 ?
0.9

So what does the record say about RatioLC50 for CCCCN(CCCC)SN(C)C(=O)Oc1cccc2c1OC(C)(C)C2 [CARBOSULFAN] ?
1.2

So what does the record say about RatioLC50 for CC1(C)C(C=C(Cl)Cl)C1C(=O)OC(C#N)c1cccc(Oc2ccccc2)c1 (stereo not drawn) [ALPHA-CYPERMETHRIN] ?
0.4

So what does the record say about RatioLC50 for CCCSP(=O)(OCC)Oc1ccc(Br)cc1Cl (centres undefined) [PROFENOFOS] ?
1.3

* * *

- System: Aphis gossypii
- Assay type: functional
Exercise: state measured RatioLC50 for each of the compounds provided.
Respond with the number and no other words.

So what does the record say about RatioLC50 for CC1(C)C(C=C(Cl)Cl)C1C(=O)OC(C#N)c1cccc(Oc2ccccc2)c1 (stereo not given) ?
473

So what does the record say about RatioLC50 for CCCSP(=O)(OCC)Oc1ccc(Br)cc1Cl (stereo not given) ?
4.4

So what does the record say about RatioLC50 for C/C(=N\C#N)N(C)Cc1ccc(Cl)nc1 ?
1.6

So what does the record say about RatioLC50 for Clc1ccc(C(c2ccc(Cl)cc2)C(Cl)(Cl)Cl)cc1 ?
148.7

So what does the record say about RatioLC50 for CCCCN(CCCC)SN(C)C(=O)Oc1cccc2c1OC(C)(C)C2 ?
0.7

* * *

- Test system: Aphis gossypii
- Type: functional, clone C4
observable: LC50
Please answer using a numeric value trailed by its unit.

So what does the record say about LC50 for CCCCN(CCCC)SN(C)C(=O)Oc1cccc2c1OC(C)(C)C2 ?
5.7 ugAi/ml

So what does the record say about LC50 for CCCSP(=O)(OCC)Oc1ccc(Br)cc1Cl (centres undefined) ?
15 ugAi/ml

So what does the record say about LC50 for CC1(C)C(C=C(Cl)Cl)C1C(=O)OC(C#N)c1cccc(Oc2ccccc2)c1 (centres undefined) ?
6.3 ugAi/ml

So what does the record say about LC50 for C/C(=N\C#N)N(C)Cc1ccc(Cl)nc1 ?
3.7 ugAi/ml

* * *

- Test system: Aphis gossypii
- protocol: Insecticidal activity against Aphis gossypii clone Auber (cotton aphid) in egg plant leaf assessed as mortality after 24 hr by leaf disk assay
- Assay type: functional
Lab note - cut at 8 ugAi/ml for LC50: Condition met if strictly below, Condition not met if not.

is_below(LC50, 8 ugAi/ml) for CCCCN(CCCC)SN(C)C(=O)Oc1cccc2c1OC(C)(C)C2 [CARBOSULFAN] ?
Condition met

is_below(LC50, 8 ugAi/ml) for Clc1ccc(C(c2ccc(Cl)cc2)C(Cl)(Cl)Cl)cc1 [CHLOROPHENOTHANE] ?
Condition not met

is_below(LC50, 8 ugAi/ml) for CC1(C)C(C=C(Cl)Cl)C1C(=O)OC(C#N)c1cccc(Oc2ccccc2)c1 (stereo not drawn) [ALPHA-CYPERMETHRIN] ?
Condition not met

is_below(LC50, 8 ugAi/ml) for CCCSP(=O)(OCC)Oc1ccc(Br)cc1Cl (stereo not given) [PROFENOFOS] ?
Condition not met
